Assay: solution stability at pH 5.0, 7.4, 9.4
Type: physicochemical
Conditions: pH = 7.4
quantityMeasured: The solution stability: The intact ± SEM at 120 min (%)

[[record]]
molecule = "COc1cc(NC(=O)c2ccccn2)ccc1Cl [Compound 4]"
resultunit = "%"
resultnumber = 97.3

[[record]]
molecule = "[2H]C([2H])(F)Sc1cc(NC(=O)c2ccccn2)ccc1Cl [Compound 15]"
resultunit = "%"
resultnumber = 88.3

[[record]]
molecule = "COc1ccc([C@@H]2Sc3ccccc3N(CCN(C)C)C(=O)[C@@H]2OC(C)=O)cc1 [Diltiazem]"
resultunit = "%"
resultnumber = 99.0

[[record]]
molecule = "CSc1cc(NC(=O)c2ccccn2)ccc1Cl [Compound 13]"
resultunit = "%"
resultnumber = 87.9


====

Target: mGluR4 (Homo sapiens, UniProt Q14833)
Sequence (Q14833 33-912): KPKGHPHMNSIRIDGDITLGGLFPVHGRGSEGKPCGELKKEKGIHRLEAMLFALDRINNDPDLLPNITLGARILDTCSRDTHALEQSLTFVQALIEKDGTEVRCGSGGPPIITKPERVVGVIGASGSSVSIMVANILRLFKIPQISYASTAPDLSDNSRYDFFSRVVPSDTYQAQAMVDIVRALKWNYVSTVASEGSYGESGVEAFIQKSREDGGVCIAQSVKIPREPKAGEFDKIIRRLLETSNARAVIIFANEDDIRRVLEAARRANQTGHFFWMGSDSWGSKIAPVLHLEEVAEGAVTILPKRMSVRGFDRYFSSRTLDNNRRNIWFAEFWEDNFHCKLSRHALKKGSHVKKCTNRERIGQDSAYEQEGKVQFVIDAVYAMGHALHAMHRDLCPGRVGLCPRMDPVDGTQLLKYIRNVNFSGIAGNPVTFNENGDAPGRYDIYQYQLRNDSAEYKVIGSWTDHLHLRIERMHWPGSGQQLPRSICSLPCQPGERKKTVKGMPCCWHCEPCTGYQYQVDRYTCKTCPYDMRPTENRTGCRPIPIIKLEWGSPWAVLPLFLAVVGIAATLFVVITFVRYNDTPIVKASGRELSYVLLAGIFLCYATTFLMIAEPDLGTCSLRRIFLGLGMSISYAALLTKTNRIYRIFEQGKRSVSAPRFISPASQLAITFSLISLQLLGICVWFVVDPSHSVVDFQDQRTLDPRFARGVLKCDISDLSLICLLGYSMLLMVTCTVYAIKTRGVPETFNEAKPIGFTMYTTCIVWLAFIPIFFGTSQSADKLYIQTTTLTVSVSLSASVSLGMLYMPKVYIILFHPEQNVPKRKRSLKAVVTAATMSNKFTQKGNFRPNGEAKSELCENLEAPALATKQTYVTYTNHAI
Assay: competitive binding assay with [^3H]4 in mGluR4 transfected CHO cells
Conditions: read-out: IC50±SE; mGluR4 transfected CHO cells, 2 nM [^3H]4, test compound 0.01 nM to 10 μM
quantityMeasured: pIC50
Field pIC50 (float): negative decimal logarithm of the concentration in molar.

Request: # query: pIC50 | item `CSc1cc(NC(=O)c2ccccn2)ccc1Cl` | system: mGluR4 (Homo sapiens, UniProt Q14833)
Result: 8.46

====

Assay: solution stability at pH 5.0, 7.4, 9.4
Type: physicochemical
Settings: pH = 5.0
quantityMeasured: The solution stability: The intact ± SEM at 120 min (%)

[[record]]
molecule = "[2H]C([2H])(F)Sc1cc(NC(=O)c2ccccn2)ccc1Cl [Compound 15]"
resultunit = "%"
resultnumber = 87.1

[[record]]
molecule = "COc1cc(NC(=O)c2ccccn2)ccc1Cl [Compound 4]"
resultunit = "%"
resultnumber = 92.7

[[record]]
molecule = "CSc1cc(NC(=O)c2ccccn2)ccc1Cl [Compound 13]"
resultunit = "%"
resultnumber = 85.9

[[record]]
molecule = "COc1ccc([C@@H]2Sc3ccccc3N(CCN(C)C)C(=O)[C@@H]2OC(C)=O)cc1 [Diltiazem]"
resultunit = "%"
resultnumber = 94.7


====

Test: Log D7.4, scaled-down shake flask method using [^18F]15
Type: physicochemical
Conditions: octanol/phosphate buffer, pH 7.4
quantityMeasured: logD
Reply with the value as a number alone.

Request: Look up logD: `[2H]C([2H])(F)Sc1cc(NC(=O)c2ccccn2)ccc1Cl`
Result: 3.82

====

Assay: solution stability at pH 5.0, 7.4, 9.4
Type: physicochemical
Conditions: pH = 9.4
quantityMeasured: The solution stability: The intact ± SEM at 120 min (%)

[[record]]
molecule = "[2H]C([2H])(F)Sc1cc(NC(=O)c2ccccn2)ccc1Cl [Compound 15]"
resultnumber = 84.3

[[record]]
molecule = "CSc1cc(NC(=O)c2ccccn2)ccc1Cl [Compound 13]"
resultnumber = 89.3

[[record]]
molecule = "COc1ccc([C@@H]2Sc3ccccc3N(CCN(C)C)C(=O)[C@@H]2OC(C)=O)cc1 [Diltiazem]"
resultnumber = 69.8

[[record]]
molecule = "COc1cc(NC(=O)c2ccccn2)ccc1Cl [Compound 4]"
resultnumber = 89.1


====

Biological target: mGluR4 (Homo sapiens, UniProt Q14833)
Assay: competitive binding assay with [^3H]4 in mGluR4 transfected CHO cells
quantityMeasured: pIC50
Field pIC50 (float): negative decimal logarithm of the concentration in molar.

Request: Look up pIC50: [2H]C([2H])(F)Sc1cc(NC(=O)c2ccccn2)ccc1Cl [Compound 15]
Result: 8.46

====

Assay: in vitro plasma stability
Assay type: in vitro ADME
Details: rat plasma (rat serum)
quantityMeasured: The plasma stability: The intact ± SEM at 120 (min%)

Known results for compounds:
[[record]]
smilesstructure = "COc1cc(NC(=O)c2ccccn2)ccc1Cl"
resultnumber = 98.2

[[record]]
smilesstructure = "CSc1cc(NC(=O)c2ccccn2)ccc1Cl"
resultnumber = 91.5


[P] COc1ccc([C@@H]2Sc3ccccc3N(CCN(C)C)C(=O)[C@@H]2OC(C)=O)cc1
[Q] [2H]C([2H])(F)Sc1cc(NC(=O)c2ccccn2)ccc1Cl
Request: For P and Q , which recorded The plasma stability: The intact ± SEM at 120 (min%) is lower? I would appreciate it if you answered with the label of your choice.
Result: P
